Values compiled from ChEMBL document CHEMBL1961873.

- system: Ribosomal protein S6 kinase alpha-5 (Homo sapiens) (UniProt O75582);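 further: mean inhibition of MSK1 reported, from a GSK PKIS inhibitor set screen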
- Sequence (O75582 whole entry, looked up): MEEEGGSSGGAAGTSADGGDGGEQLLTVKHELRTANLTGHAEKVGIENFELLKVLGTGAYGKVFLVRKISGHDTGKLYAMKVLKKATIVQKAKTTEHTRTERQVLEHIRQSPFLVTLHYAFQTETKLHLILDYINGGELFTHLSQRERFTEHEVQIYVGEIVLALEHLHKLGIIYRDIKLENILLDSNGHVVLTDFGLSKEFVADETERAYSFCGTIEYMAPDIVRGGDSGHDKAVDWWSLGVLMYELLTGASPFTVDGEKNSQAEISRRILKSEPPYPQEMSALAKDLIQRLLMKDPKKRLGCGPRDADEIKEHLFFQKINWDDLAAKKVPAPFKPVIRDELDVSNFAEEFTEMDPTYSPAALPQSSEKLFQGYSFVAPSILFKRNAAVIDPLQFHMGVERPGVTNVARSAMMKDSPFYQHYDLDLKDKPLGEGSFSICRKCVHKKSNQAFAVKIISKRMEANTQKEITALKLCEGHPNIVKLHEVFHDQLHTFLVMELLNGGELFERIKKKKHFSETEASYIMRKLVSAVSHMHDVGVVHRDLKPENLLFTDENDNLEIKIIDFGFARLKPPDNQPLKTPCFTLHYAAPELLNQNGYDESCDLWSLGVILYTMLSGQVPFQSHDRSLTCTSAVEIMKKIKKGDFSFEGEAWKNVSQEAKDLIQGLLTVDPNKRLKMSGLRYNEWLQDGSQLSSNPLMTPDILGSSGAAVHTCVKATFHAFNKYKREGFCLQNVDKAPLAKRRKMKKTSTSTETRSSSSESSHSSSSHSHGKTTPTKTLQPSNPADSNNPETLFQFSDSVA
- cond: at 0.1 µM
value_kind: inhibition (%)
Numbers only; they are read as %.

Solved cases below.
What inhibition value was documented for this compound, CS(=O)(=O)Nc1ccc(-c2cc(-c3ccccc3)cc(C(N)=O)c2N)cc1 ?
3.96

Bench note: what inhibition did CC1(C)CC(n2cnc(-c3ccc(F)cc3)c2-c2ccnc(N)n2)CC(C)(C)N1 show?
-2.87

Quick one: inhibition of COc1ccc2ncn(-c3cc(O[C@H](C)c4ccccc4C(F)(F)F)c(C(N)=O)s3)c2c1 ?
-0.46

Given the entry CCCNc1cccc(-n2ncc3c(N/N=C/c4ccncc4)ncnc32)c1 , report its measured inhibition.
-4.25

I would be grateful if you could share the reported inhibition for Cc1ccc(-c2cc3c(NC(=O)C4CC4)ncnc3o2)cc1 .
3.67

More entries:
Which inhibition is listed for CCN1CCC(C(=O)Nc2n[nH]c3nnc(-c4cccc(F)c4F)cc23)CC1 ?
-1.22

Using the record for CCS(=O)(=O)c1ccc(OC)c(Nc2ncc(-c3cccc(F)c3)o2)c1 , report its inhibition.
5.29

Look up inhibition: Cc1cc(O)cc(C)c1/C=C/c1cncc(C(=O)OC(C)(C)C)c1
1.89

Could you tell me which inhibition is on file for c1ccc(-c2n[nH]cc2-c2ccnc(-c3ccc(OCCn4ccnc4)cc3)c2)nc1 ?
-4.46

Please report the recorded inhibition for N#Cc1cccc(Nc2ncc(-c3ccccc3)o2)c1 .
1.22
